biological target: Hck (UniProt P08631); assay: phosphorylation enrichment, bacterial display (enrichment ratio); higher = better substrate or ligand; peptides without Tyr show the background
Sequence (P08631 whole entry, looked up): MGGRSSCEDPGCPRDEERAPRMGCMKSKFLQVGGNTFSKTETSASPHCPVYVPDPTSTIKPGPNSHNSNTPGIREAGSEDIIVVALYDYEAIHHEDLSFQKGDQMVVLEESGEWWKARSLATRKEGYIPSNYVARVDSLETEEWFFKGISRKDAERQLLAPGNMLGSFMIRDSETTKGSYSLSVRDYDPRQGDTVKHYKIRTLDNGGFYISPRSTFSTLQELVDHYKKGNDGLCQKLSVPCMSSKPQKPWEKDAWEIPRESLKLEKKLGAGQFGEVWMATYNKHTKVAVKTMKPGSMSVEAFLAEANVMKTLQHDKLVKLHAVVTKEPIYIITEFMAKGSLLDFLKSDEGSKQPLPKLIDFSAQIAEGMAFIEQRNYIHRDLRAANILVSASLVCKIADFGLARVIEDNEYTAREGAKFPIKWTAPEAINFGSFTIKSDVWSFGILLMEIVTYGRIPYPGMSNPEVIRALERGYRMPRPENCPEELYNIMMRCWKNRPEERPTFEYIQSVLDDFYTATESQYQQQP
phosphorylation enrichment of 0.5 or higher: Y. Under 0.5: N.

Before answering, review these 5 worked examples.
query_sequence="GVRLYYRVRES [RB1_Y454_M457R]" class_label=N
query_sequence="SECCKYKIDNP [OSMR_Y689]" class_label=N
query_sequence="QLYGAYLRIHA [BSCL2_Y213]" class_label=Y
query_sequence="FLAVGYHKPRI [IDS_Y225_H229R]" class_label=N
query_sequence="GLNKDYRMVVN [HINT1_Y94_G93D]" class_label=N

Prompt: Answer whether phosphorylation enrichment of IEPVIDVVQRR [ANOS1_Y217_Y217D] is greater than or equal to 0.5.
Response: N

Prompt: Answer whether phosphorylation enrichment of MCTVDYLLRLQ [RYR1_Y3921_I3916M] is greater than or equal to 0.5.
Response: Y

Prompt: Answer whether phosphorylation enrichment of PQDVTYAQLHS [LILRB4_Y412] is greater than or equal to 0.5.
Response: Y

Prompt: Answer whether phosphorylation enrichment of RAILNYIASKF [GSTA3_Y74_YF] is greater than or equal to 0.5.
Response: Y

Prompt: Answer whether phosphorylation enrichment of GGQVFHNSEFG [FLT4_Y1333_Y1333H_YF] is greater than or equal to 0.5.
Response: N

Prompt: Answer whether phosphorylation enrichment of WISNRSLDFSS [PRPH2_Y184_Y184S] is greater than or equal to 0.5.
Response: N

Prompt: Answer whether phosphorylation enrichment of IDLEKYKLLPE [DHFR_Y157] is greater than or equal to 0.5.
Response: N

Prompt: Answer whether phosphorylation enrichment of SCRENYSYSEE [LEMD3_Y258_D260Y] is greater than or equal to 0.5.
Response: Y

====

target: Fyn (UniProt P06241); assay: phosphorylation enrichment, bacterial display (enrichment ratio); higher = better substrate or ligand; peptides without Tyr show the background
Sequence (P06241 whole entry, looked up): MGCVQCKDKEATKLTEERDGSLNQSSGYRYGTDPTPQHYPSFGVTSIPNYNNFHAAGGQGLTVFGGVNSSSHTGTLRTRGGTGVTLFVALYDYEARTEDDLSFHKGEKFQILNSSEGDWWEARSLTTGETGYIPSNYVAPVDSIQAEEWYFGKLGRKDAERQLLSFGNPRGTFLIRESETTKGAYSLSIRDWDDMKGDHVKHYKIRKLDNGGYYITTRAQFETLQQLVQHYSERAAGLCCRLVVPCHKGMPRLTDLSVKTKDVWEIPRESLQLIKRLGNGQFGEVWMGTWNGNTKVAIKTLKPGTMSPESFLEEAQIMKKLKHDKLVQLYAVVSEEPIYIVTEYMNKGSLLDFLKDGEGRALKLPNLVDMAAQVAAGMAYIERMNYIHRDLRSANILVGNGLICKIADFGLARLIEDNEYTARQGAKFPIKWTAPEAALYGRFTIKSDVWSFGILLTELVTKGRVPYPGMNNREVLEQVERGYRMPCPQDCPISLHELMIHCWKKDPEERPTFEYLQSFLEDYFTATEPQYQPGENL
phosphorylation enrichment of 0.6 or higher: true. Under 0.6: false.

Before answering, review these 3 worked examples.
query_sequence="VREIRCQGGNR [VWF_Y1570_Y1570C]" class_label=false
query_sequence="RNVYYYSYLLK [PTEN_Y178_Y174N]" class_label=true
query_sequence="LRVKMYNFLRS [ADGRG7_Y760]" class_label=true

Prompt: Answer whether phosphorylation enrichment of SEASYYKSLNL [NGEF_Y289] is greater than or equal to 0.6.
Response: false

Prompt: Answer whether phosphorylation enrichment of VKMLEYRGKDV [CASP5_Y74_L75R] is greater than or equal to 0.6.
Response: false

Prompt: Answer whether phosphorylation enrichment of EASEQYLTKAS [NRCAM_Y739] is greater than or equal to 0.6.
Response: false

Prompt: Answer whether phosphorylation enrichment of DIRAQYDELAR [KRT18_Y256] is greater than or equal to 0.6.
Response: false

Prompt: Answer whether phosphorylation enrichment of EPSVDCCVVKI [CAD_Y735_Y735C] is greater than or equal to 0.6.
Response: false

Prompt: Answer whether phosphorylation enrichment of CTLTHYKSAVK [ASNS_Y555_R550C] is greater than or equal to 0.6.
Response: false

Prompt: Answer whether phosphorylation enrichment of PVQAVYQKVVA [HBB_Y131_A130V] is greater than or equal to 0.6.
Response: true

Prompt: Answer whether phosphorylation enrichment of MYVKSYTIHYS [F5_Y2153] is greater than or equal to 0.6.
Response: false

Prompt: Answer whether phosphorylation enrichment of GTYEDYVEGLR [MYL6_Y89] is greater than or equal to 0.6.
Response: true

====

Measured phosphorylation enrichment values are reported for all entries that follow.
molecular target: EPHB1 (UniProt P54762); test: phosphorylation enrichment, bacterial display (enrichment ratio); higher = better substrate or ligand; peptides without Tyr show the background
Sequence (P54762 whole entry, looked up): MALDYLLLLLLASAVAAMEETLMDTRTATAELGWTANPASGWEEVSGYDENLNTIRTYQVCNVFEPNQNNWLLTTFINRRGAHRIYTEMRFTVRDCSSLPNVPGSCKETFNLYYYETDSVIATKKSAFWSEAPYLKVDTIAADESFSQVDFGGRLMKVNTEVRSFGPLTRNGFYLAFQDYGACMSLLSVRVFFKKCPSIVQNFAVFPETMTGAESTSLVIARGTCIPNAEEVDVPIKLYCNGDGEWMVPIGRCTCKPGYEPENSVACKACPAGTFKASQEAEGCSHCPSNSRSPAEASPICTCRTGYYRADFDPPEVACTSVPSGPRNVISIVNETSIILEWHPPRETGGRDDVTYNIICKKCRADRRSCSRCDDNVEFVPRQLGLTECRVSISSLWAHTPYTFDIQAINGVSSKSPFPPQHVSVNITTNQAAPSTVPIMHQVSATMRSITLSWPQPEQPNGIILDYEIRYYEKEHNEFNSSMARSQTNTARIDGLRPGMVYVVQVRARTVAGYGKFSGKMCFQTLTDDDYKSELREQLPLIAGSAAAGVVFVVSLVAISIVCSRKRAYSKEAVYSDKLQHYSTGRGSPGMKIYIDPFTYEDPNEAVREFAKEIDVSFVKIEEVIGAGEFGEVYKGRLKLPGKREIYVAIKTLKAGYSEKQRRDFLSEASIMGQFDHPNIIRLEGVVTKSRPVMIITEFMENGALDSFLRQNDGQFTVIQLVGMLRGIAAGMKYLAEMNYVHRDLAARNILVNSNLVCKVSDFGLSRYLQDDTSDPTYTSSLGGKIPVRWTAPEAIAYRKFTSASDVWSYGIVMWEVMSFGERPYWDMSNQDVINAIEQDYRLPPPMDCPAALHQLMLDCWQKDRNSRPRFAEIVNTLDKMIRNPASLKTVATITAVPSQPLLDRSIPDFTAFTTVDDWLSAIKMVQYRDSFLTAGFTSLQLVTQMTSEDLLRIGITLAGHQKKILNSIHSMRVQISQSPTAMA
Answer with the value's number alone.

query_sequence="EASEQYLTKAS [NRCAM_Y739]" property="phosphorylation enrichment" recorded_measurement=0.424

Next sequence, please.
Given item LPKVSCVKAID [GLRA1_Y307_Y307C] , the value recorded as its phosphorylation enrichment is 0.794

====

Measured phosphorylation enrichment values are reported for all entries that follow.
target: FGFR3 (UniProt P22607); experiment: phosphorylation enrichment, bacterial display (enrichment ratio); higher = better substrate or ligand; peptides without Tyr show the background
Sequence (P22607 whole entry, looked up): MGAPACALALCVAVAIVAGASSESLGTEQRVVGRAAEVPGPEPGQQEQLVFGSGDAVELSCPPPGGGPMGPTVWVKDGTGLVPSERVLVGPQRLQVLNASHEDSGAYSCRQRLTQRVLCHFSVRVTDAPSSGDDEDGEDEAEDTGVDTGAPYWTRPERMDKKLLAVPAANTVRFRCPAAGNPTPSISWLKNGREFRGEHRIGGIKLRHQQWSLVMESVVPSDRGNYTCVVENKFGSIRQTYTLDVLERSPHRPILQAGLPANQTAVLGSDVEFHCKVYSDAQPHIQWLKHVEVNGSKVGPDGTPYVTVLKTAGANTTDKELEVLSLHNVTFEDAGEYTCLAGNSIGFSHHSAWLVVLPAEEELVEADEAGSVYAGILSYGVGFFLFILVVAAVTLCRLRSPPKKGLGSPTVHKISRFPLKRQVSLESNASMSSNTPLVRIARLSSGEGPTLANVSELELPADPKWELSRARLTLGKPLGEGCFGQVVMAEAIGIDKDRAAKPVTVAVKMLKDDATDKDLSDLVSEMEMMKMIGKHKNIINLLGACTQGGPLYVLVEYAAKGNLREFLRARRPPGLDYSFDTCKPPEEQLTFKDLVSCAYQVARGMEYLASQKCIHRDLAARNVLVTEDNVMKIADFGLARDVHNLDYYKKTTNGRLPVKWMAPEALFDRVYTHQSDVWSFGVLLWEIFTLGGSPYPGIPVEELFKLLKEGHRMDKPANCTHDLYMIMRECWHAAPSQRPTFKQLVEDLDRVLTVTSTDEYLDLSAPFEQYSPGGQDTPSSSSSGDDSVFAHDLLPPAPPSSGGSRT
Answer with the value's number alone.

query_sequence="WISNRSLDFSS [PRPH2_Y184_Y184S]" recorded_measurement=0.583
query_sequence="CSPLLYKVIMS [OR8D4_Y132_R133K]" recorded_measurement=0.819

Tested on FGFR3 (UniProt P22607): RLLVVYPWTRR [HBB_Y36_Q40R] . Observed phosphorylation enrichment: 0.823

Tested on FGFR3 (UniProt P22607): GLRCGYGVLGG [KRTAP20-2_Y15_Y13C] . Observed phosphorylation enrichment: 0.612

Tested on FGFR3 (UniProt P22607): CQAHGYFCQLI [STK11_Y156] . Observed phosphorylation enrichment: 0.609

====

molecular target: SHP2-C SH2; experiment: SH2 binding enrichment of the phosphorylated peptide, bacterial display (enrichment ratio); higher = better substrate or ligand; peptides without Tyr show the background;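 also: peptide library displayed on the E. coli surface as eCPX fusions, selected cells deep-sequenced, score is each peptide's frequency after selection divided by its frequency in the input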
Measured SH2 binding enrichment values are reported for all entries that follow.

Would you please look over these solved cases?
query_sequence="VDHFGYNKDDK [APOB_Y740_T741N]" recorded_measurement=0.595
query_sequence="REVVNYVQKRS [RMI1_Y450_N455S]" recorded_measurement=0.511
query_sequence="CSPLLYKVIMS [OR8D4_Y132_R133K]" recorded_measurement=0.635
query_sequence="CQKRKYIEIDS [SDAD1_Y580_S575C]" recorded_measurement=0.892
query_sequence="NREGVYTVFAP [TGFBI_Y537]" recorded_measurement=0.516

Tested on SHP2-C SH2: SVVVPYEPPEV [TP53_Y220] . Observed SH2 binding enrichment: 1.11

Tested on SHP2-C SH2: KKFPDYIQIAM [SGMS2_Y59_YF] . Observed SH2 binding enrichment: 0.946

====

molecular target: FGFR1 (UniProt P11362); experiment: phosphorylation enrichment, bacterial display (enrichment ratio); higher = better substrate or ligand; peptides without Tyr show the background
Sequence (P11362 whole entry, looked up): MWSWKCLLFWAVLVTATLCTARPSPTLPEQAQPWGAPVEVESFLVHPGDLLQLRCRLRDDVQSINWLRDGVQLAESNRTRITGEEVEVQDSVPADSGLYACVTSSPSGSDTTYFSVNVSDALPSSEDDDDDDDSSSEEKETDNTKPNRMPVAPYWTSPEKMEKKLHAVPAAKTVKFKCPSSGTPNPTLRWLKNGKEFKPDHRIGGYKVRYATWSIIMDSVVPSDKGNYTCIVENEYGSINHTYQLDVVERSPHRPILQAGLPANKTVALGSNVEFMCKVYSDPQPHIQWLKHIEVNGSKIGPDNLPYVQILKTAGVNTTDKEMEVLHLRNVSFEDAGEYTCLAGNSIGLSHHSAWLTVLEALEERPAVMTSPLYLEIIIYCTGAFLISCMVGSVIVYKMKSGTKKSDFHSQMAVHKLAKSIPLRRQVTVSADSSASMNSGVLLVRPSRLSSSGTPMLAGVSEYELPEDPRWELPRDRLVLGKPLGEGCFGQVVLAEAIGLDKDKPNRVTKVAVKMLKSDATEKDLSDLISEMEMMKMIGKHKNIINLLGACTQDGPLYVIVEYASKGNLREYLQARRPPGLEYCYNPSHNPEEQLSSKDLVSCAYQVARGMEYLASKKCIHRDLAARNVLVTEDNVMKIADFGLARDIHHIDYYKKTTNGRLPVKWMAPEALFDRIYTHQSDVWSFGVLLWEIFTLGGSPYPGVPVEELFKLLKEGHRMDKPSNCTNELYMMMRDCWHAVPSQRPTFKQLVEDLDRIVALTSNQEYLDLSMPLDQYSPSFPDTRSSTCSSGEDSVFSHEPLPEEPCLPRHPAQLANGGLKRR
Measured phosphorylation enrichment values are reported for all entries that follow.

Would you please look over these solved cases?
query_sequence="FTRNFYVWAVL [CYBA_Y88_R90W_YF]" property="phosphorylation enrichment" recorded_measurement=0.498
query_sequence="EFNINYNNEPP [THG1L_Y228_L232P]" property="phosphorylation enrichment" recorded_measurement=0.681
query_sequence="EYQLPYYNTVP [BMPR1A_Y457_M460T]" property="phosphorylation enrichment" recorded_measurement=7.09
query_sequence="CTTIHYNFMCD [TP53_Y234_N239D_YF]" property="phosphorylation enrichment" recorded_measurement=0.399
query_sequence="KNKNRYKNVLP [PTPN11_Y279_I282V]" property="phosphorylation enrichment" recorded_measurement=0.419
query_sequence="WKEIEYEVVRD [CPS1_Y634]" property="phosphorylation enrichment" recorded_measurement=0.549

Given item AGRTGYDNREI [BCL2_Y9] , the value recorded as its phosphorylation enrichment is 0.461

Given item KDFTKYVAFIE [KDM4B_Y31_N29T_YF] , the value recorded as its phosphorylation enrichment is 0.442

Given item EFLRNYFTDKA [DSG2_Y775] , the value recorded as its phosphorylation enrichment is 0.569

Given item PSDLLYIPDIQ [ITGA2B_Y845_L847P] , the value recorded as its phosphorylation enrichment is 1.21

Given item GGYTCYCDGKK [PROS1_Y266] , the value recorded as its phosphorylation enrichment is 0.457

Given item RASGIYFVPKG [APBB1IP_Y340_YF] , the value recorded as its phosphorylation enrichment is 1.71

Given item GFGGGYGGVLT [KRT19_Y65_A60G_YF] , the value recorded as its phosphorylation enrichment is 0.491

Given item TLNTNYHLPPS [MT-ATP8_Y33_M28T] , the value recorded as its phosphorylation enrichment is 2.51

Given item TQTPPYVKKHP [LARP1B_Y457] , the value recorded as its phosphorylation enrichment is 0.34

Given item PSELFYSKISP [SMG1_Y2254_G2258S_YF] , the value recorded as its phosphorylation enrichment is 3.79

Given item NHFKICNLCAE [PTEN_Y68_Y68C_YF] , the value recorded as its phosphorylation enrichment is 0.401

Given item LSDGPYSNPFE [EPOR_Y485_YF] , the value recorded as its phosphorylation enrichment is 0.491

Given item IEDNEYTAREG [HCK_Y411] , the value recorded as its phosphorylation enrichment is 0.722

Given item VAMELYVFRGV [GAN_Y471_G474R] , the value recorded as its phosphorylation enrichment is 0.553

The measured values listed here are drawn from the supplement of paper PMC10065799.
